testedOn: ROS1 (Homo sapiens)
Construct: purchased DiscoverX (KINOMEscan)
Sequence (P08922 28-2347): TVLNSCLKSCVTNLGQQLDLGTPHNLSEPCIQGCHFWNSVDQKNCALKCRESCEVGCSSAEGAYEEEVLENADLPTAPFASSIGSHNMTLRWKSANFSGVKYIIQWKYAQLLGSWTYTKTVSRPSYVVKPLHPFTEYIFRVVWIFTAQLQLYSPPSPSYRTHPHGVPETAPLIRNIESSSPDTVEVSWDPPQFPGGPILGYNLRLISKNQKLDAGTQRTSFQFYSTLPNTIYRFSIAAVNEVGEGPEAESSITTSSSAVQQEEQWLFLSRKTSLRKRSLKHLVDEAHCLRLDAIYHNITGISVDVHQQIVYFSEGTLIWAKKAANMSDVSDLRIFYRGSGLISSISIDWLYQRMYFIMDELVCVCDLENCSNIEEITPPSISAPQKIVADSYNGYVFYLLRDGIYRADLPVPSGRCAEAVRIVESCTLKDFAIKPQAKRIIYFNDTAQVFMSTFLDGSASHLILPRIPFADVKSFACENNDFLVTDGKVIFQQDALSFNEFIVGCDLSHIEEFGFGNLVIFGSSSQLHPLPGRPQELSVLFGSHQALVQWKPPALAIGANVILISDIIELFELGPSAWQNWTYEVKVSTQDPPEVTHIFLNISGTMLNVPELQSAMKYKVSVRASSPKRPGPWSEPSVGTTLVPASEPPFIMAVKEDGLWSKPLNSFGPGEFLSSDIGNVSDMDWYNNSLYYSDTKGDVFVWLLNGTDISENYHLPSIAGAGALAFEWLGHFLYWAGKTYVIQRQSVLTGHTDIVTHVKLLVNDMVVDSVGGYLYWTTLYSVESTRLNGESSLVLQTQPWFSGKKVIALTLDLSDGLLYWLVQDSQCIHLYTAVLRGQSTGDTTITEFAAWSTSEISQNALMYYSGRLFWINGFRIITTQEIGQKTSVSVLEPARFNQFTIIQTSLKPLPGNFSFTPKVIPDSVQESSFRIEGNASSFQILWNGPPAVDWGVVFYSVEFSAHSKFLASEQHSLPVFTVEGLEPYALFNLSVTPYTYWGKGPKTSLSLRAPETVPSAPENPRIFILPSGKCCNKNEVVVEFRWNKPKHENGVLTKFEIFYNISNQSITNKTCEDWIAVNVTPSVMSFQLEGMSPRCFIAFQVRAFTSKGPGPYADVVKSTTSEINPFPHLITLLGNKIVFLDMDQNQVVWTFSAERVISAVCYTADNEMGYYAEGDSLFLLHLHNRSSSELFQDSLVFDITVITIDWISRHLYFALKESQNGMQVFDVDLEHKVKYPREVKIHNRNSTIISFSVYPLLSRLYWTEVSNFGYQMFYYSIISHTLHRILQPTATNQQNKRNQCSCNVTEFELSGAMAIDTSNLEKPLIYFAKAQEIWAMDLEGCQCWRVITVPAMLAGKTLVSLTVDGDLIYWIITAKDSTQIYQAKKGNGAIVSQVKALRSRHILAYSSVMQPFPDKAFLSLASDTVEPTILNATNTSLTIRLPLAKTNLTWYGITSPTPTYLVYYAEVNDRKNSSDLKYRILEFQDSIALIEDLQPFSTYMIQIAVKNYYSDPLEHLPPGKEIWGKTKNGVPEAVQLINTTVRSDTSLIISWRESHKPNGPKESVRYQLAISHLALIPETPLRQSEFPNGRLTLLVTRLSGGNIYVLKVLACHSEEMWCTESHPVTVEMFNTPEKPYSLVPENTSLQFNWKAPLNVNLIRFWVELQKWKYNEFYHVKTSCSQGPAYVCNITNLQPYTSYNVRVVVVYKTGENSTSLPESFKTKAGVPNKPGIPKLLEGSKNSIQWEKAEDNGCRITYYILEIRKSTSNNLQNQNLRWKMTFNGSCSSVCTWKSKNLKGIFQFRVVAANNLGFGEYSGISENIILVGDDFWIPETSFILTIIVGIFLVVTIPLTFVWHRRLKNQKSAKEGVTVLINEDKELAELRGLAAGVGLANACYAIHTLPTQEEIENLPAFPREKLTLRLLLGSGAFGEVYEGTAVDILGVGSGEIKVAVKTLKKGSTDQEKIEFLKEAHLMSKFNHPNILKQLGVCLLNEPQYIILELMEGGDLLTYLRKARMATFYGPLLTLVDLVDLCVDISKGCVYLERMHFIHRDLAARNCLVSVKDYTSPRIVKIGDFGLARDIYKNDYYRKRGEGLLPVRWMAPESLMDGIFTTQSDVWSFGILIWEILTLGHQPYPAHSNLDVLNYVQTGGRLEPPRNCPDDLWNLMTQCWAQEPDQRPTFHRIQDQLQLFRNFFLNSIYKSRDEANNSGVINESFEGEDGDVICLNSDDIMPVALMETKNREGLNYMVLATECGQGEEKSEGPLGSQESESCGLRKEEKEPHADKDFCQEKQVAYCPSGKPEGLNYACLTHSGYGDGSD
experiment: KINOMEscan competitive binding
statedConditions: n=1, read-out: Percent inhibition, ROS1
experimentalReadout: inhibition at 10 µM (%)
Express it in %; write the number only.

Inquiry: # get_value(readout='inhibition at 10 µM', item= C[C@@H](Oc1cc(-c2cnc3ccccn23)sc1C(N)=O)c1ccccc1Cl )
Reply text: 0

Inquiry: // repeat for Fc1cccc(COc2ccc(Nc3ncnc4c3CN(CCN3CCOCC3)CC4)cc2Cl)c1 and report
Reply text: 0

Inquiry: // repeat for c1ccc(COc2cccc(-c3ccnc4[nH]ccc34)c2)cc1 and report
Reply text: 0

Inquiry: // repeat for CN1CCN(c2ccc(Nc3nccc(-c4cnn5ncccc45)n3)cc2C#N)CC1 and report
Reply text: 91.9

---

Provide the reported inhibition at 10 µM of each item.
testedOn: TLK1 (Homo sapiens)
Construct: purchased DiscoverX (KINOMEscan)
Sequence (Q9UKI8 whole entry): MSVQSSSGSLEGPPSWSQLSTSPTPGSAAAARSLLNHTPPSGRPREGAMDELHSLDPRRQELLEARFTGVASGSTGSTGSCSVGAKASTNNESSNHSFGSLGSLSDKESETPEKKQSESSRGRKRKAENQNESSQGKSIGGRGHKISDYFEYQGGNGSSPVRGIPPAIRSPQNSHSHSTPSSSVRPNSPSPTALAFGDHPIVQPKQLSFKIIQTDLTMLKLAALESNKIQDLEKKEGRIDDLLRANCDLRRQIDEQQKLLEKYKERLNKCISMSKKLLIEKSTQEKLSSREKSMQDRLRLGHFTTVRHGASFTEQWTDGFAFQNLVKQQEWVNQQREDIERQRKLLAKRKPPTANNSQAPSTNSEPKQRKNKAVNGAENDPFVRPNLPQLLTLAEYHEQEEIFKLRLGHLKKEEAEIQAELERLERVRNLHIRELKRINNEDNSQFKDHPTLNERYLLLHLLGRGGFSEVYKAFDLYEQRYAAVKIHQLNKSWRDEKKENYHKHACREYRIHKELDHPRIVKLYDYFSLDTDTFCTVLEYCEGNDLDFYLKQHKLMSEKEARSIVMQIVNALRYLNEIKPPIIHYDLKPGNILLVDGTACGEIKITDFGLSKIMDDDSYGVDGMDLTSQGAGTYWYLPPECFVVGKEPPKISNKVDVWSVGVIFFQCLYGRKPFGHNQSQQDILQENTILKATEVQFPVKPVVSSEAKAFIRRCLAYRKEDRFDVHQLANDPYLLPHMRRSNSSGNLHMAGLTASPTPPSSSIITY
experiment: KINOMEscan competitive binding
statedConditions: n=1, read-out: Percent inhibition, TLK1
Express it in %; write the number only.

Inquiry: # get_value(readout='inhibition at 10 µM', item= c1ccc(COc2cccc(-c3ccnc4[nH]ccc34)c2)cc1 )
Reply text: 0

Inquiry: // repeat for C[C@@H](Oc1cc(-c2cnc3ccccn23)sc1C(N)=O)c1ccccc1Cl and report
Reply text: 0

Inquiry: // repeat for Nc1ncc2c(-c3ccncc3)c[nH]c2n1 and report
Reply text: 0

Inquiry: // repeat for Cc1ccc(O)cc1Nc1ccnc(Nc2cccc(C(N)=O)c2)n1 and report
Reply text: 0

Inquiry: // repeat for CN1CCN(c2ccc(Nc3nccc(-c4cnn5ncccc45)n3)cc2C#N)CC1 and report
Reply text: 99.2

---

testedOn: CDK2 (Homo sapiens, UniProt P24941)
Construct: purchased DiscoverX (KINOMEscan)
experiment: KINOMEscan competitive binding
statedConditions: 10 µM, n=1; kinase CDK2; read-out: Percent inhibition CDK2
Provide the reported inhibition at 10 µM of each item.
Express it in %; write the number only.

Inquiry: # get_value(readout='inhibition at 10 µM', item= c1ccc(COc2cccc(-c3ccnc4[nH]ccc34)c2)cc1 )
Reply text: 0

Inquiry: // repeat for COc1ccc(Nc2nccc(-c3cnn4ncccc34)n2)cc1 and report
Reply text: 99.9

Inquiry: // repeat for COc1cc(Nc2nccc(-c3sc(N)nc3-c3cccc(NC(=O)c4c(F)cccc4F)c3)n2)cc(OC)c1OC and report
Reply text: 0

---

testedOn: panel of 203 kinases (Homo sapiens, UniProt Q8IVH8)
Construct: purchased DiscoverX (KINOMEscan)
experiment: KINOMEscan competitive binding, whole panel
statedConditions: 10 µM, n=1; kinase MAP4K3; read-out: Percent inhibition MAP4K3
experimentalReadout: inhibition at 10 µM (%)
Express it in %; write the number only.

Inquiry: Fill in the recorded inhibition at 10 µM for this compound, with panel of 203 kinases (Homo sapiens, UniProt Q8IVH8) as test system: c1ccc(COc2cccc(-c3ccnc4[nH]ccc34)c2)cc1
Reply text: 0

Inquiry: // repeat for COc1ccc(Nc2nccc(-c3cnn4ncccc34)n2)cc1 and report
Reply text: 79.3

Inquiry: // repeat for Clc1ccc(Nc2ncc(-c3ccccc3)s2)cc1 and report
Reply text: 0

Inquiry: // repeat for Fc1cccc(COc2ccc(Nc3ncnc4c3CN(CCN3CCOCC3)CC4)cc2Cl)c1 and report
Reply text: 0

Inquiry: // repeat for Cc1ccc(O)cc1Nc1ccnc(Nc2cccc(C(N)=O)c2)n1 and report
Reply text: 80.2

Inquiry: // repeat for Nc1ncc2c(-c3ccncc3)c[nH]c2n1 and report
Reply text: 82

---

testedOn: panel of 203 kinases (Homo sapiens, UniProt Q04771)
Construct: purchased DiscoverX (KINOMEscan)
Sequence (Q04771 21-509): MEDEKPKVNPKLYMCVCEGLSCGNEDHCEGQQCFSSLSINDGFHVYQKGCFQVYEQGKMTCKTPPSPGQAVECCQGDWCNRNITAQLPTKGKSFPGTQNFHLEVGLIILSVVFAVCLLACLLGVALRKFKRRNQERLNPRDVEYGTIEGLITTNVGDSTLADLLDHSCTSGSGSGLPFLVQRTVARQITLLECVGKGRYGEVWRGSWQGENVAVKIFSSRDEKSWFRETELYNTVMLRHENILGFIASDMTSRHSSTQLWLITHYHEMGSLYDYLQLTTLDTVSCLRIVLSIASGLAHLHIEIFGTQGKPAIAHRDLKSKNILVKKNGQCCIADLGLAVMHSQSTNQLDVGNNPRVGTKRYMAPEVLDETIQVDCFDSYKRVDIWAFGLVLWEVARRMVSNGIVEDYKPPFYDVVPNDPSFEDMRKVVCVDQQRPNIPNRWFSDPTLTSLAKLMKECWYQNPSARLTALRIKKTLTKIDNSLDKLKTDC
experiment: KINOMEscan competitive binding, whole panel
statedConditions: 10 µM, n=1; kinase ACVR1; read-out: Percent inhibition ACVR1
experimentalReadout: inhibition at 10 µM (%)
Express it in %; write the number only.

Inquiry: # get_value(readout='inhibition at 10 µM', item= COc1cc(Nc2nccc(-c3sc(N)nc3-c3cccc(NC(=O)c4c(F)cccc4F)c3)n2)cc(OC)c1OC )
Reply text: 0

Inquiry: // repeat for Fc1cccc(COc2ccc(Nc3ncnc4c3CN(CCN3CCOCC3)CC4)cc2Cl)c1 and report
Reply text: 0

Inquiry: // repeat for COc1ccc(Nc2nccc(-c3cnn4ncccc34)n2)cc1 and report
Reply text: 92.1

Inquiry: // repeat for Nc1ncc2c(-c3ccncc3)c[nH]c2n1 and report
Reply text: 66.2

Inquiry: // repeat for c1ccc(COc2cccc(-c3ccnc4[nH]ccc34)c2)cc1 and report
Reply text: 0

---

testedOn: panel of 203 kinases (Homo sapiens, UniProt Q06187)
Construct: purchased DiscoverX (KINOMEscan)
Sequence (Q06187 whole entry): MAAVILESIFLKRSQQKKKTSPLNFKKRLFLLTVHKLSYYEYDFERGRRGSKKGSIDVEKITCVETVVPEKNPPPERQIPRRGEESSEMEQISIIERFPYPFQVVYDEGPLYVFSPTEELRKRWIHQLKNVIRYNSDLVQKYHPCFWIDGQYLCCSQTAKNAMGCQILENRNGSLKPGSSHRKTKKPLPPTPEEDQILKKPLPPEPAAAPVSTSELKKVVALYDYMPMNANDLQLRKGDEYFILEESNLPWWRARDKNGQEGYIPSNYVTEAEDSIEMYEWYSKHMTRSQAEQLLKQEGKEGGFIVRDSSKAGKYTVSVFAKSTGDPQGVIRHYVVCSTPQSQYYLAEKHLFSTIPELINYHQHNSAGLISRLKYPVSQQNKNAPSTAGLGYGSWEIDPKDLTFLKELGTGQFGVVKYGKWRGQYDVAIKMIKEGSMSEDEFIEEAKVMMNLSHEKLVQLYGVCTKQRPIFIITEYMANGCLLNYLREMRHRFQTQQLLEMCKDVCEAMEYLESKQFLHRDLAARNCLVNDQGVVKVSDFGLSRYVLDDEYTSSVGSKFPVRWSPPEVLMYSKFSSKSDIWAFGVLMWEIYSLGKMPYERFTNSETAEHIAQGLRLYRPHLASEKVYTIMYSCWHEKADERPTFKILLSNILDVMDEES
experiment: KINOMEscan competitive binding, whole panel
statedConditions: 10 µM, n=1; kinase BTK; read-out: Percent inhibition BTK
experimentalReadout: inhibition at 10 µM
In your response, the unit should come after the numeric value.

Inquiry: Fill in the recorded inhibition at 10 µM for this compound, with panel of 203 kinases (Homo sapiens, UniProt Q06187) as test system: Clc1ccc(Nc2ncc(-c3ccccc3)s2)cc1 [Compound 10]
Reply text: 0%

Inquiry: // repeat for COc1cc(Nc2nccc(-c3sc(N)nc3-c3cccc(NC(=O)c4c(F)cccc4F)c3)n2)cc(OC)c1OC [Compound 7] and report
Reply text: 100%

Inquiry: // repeat for Nc1ncc2c(-c3ccncc3)c[nH]c2n1 [Compound 11] and report
Reply text: 0%

Inquiry: // repeat for C[C@@H](Oc1cc(-c2cnc3ccccn23)sc1C(N)=O)c1ccccc1Cl [Compound 8] and report
Reply text: 0%

Inquiry: // repeat for c1ccc(COc2cccc(-c3ccnc4[nH]ccc34)c2)cc1 [Compound 9] and report
Reply text: 0%

Inquiry: // repeat for CN1CCN(c2ccc(Nc3nccc(-c4cnn5ncccc45)n3)cc2C#N)CC1 [Compound 1] and report
Reply text: 0%

---

testedOn: panel of 203 kinases (Homo sapiens, UniProt Q9UF33)
Construct: purchased DiscoverX (KINOMEscan)
Sequence (Q9UF33 23-1036): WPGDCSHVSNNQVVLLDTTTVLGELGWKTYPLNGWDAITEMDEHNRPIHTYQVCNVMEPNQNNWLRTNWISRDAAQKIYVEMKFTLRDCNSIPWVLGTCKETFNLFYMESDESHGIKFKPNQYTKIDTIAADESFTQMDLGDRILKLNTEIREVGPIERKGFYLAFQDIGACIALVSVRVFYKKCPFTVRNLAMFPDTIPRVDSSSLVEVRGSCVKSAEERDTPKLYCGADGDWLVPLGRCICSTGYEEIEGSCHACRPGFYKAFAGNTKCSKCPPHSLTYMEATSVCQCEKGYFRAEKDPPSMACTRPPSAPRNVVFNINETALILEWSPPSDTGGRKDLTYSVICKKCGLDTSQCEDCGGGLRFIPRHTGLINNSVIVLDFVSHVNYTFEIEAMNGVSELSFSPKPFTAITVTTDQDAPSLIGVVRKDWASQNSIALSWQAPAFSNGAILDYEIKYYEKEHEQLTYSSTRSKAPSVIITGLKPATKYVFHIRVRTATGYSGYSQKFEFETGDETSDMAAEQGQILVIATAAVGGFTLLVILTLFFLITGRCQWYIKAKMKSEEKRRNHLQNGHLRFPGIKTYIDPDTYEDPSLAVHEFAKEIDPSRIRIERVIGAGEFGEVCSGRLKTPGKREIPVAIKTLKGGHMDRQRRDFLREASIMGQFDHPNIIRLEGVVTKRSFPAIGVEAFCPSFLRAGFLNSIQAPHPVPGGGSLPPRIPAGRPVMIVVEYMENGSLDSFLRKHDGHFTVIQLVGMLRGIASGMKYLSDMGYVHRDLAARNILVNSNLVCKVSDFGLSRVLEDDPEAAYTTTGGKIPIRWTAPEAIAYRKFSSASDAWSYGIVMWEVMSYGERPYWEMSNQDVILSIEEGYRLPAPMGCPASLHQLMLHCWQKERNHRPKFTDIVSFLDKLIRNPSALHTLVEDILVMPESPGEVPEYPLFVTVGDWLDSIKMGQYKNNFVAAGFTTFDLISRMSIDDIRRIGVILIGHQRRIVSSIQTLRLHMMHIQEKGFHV
experiment: KINOMEscan competitive binding, whole panel
statedConditions: 10 µM, n=1; kinase EPHA6; read-out: Percent inhibition EPHA6
Provide the reported inhibition at 10 µM of each item.
Express it in %; write the number only.

Inquiry: # get_value(readout='inhibition at 10 µM', item= Fc1cccc(COc2ccc(Nc3ncnc4c3CN(CCN3CCOCC3)CC4)cc2Cl)c1 [Compound 6] )
Reply text: 0

Inquiry: // repeat for Cc1ccc(O)cc1Nc1ccnc(Nc2cccc(C(N)=O)c2)n1 [Compound 3] and report
Reply text: 100

Inquiry: // repeat for CN1CCN(c2ccc(Nc3nccc(-c4cnn5ncccc45)n3)cc2C#N)CC1 [Compound 1] and report
Reply text: 0

Inquiry: // repeat for COc1ccc(Nc2nccc(-c3cnn4ncccc34)n2)cc1 [Compound 2] and report
Reply text: 65.1

Inquiry: // repeat for Nc1ncc2c(-c3ccncc3)c[nH]c2n1 [Compound 11] and report
Reply text: 0

Inquiry: // repeat for C[C@@H](Oc1cc(-c2cnc3ccccn23)sc1C(N)=O)c1ccccc1Cl [Compound 8] and report
Reply text: 0

Inquiry: // repeat for Cc1ccc(O)cc1N(C)c1ccnc(Nc2cccc(S(N)(=O)=O)c2)n1 [Compound 4] and report
Reply text: 100
